system: HCC-78; test: relative viability (nuclei count vs DMSO), 5 days (fraction); higher = more cells survive; details: first compound 0.005 µM
assayReadout: relative viability
// return just the number, without any unit appended

# count of solved cases: 3
{"compound": "COc1cc2nccc(Oc3ccc(NC(=O)Nc4cc(C)on4)c(Cl)c3)c2cc1OC [Tivozanib] + COc1cc2c(Oc3ccc(NC(=O)C4(C(=O)Nc5ccc(F)cc5)CC4)cc3F)ccnc2cc1OCCCN1CCOCC1 [Foretinib] (partner 0.25 µM)", "measurementTarget": "HCC-78", "assayReadout": "relative viability", "observedValue": 0.539}
{"compound": "COc1cc2nccc(Oc3ccc(NC(=O)Nc4cc(C)on4)c(Cl)c3)c2cc1OC [Tivozanib] + Cc1cc(Nc2cc(N3CCN(C)CC3)nc(Sc3ccc(NC(=O)C4CC4)cc3)n2)n[nH]1 [Tozasertib] (partner 0.1 µM)", "measurementTarget": "HCC-78", "assayReadout": "relative viability", "observedValue": 0.324}
{"compound": "COc1cc2nccc(Oc3ccc(NC(=O)Nc4cc(C)on4)c(Cl)c3)c2cc1OC [Tivozanib] + Cc1nc(NC(=O)N2CCC[C@H]2C(N)=O)sc1-c1ccnc(C(C)(C)C(F)(F)F)c1 [Alpelisib] (partner 2 µM)", "measurementTarget": "HCC-78", "assayReadout": "relative viability", "observedValue": 0.327}

Look up relative viability: COc1cc2nccc(Oc3ccc(NC(=O)Nc4cc(C)on4)c(Cl)c3)c2cc1OC [Tivozanib] + CC(C)C[C@H](NC(=O)[C@H](Cc1ccccc1)NC(=O)c1cnccn1)B(O)O [Bortezomib] (partner 0.002 µM)
0.383

====

system: Calu-6; experiment: relative viability (nuclei count vs DMSO), 5 days (fraction); higher = more cells survive; conditions: first compound 0.08 µM
assayReadout: relative viability
// return just the number, without any unit appended

# count of solved cases: 4
{"compound": "Cc1cnc(-c2cnc(NCCNc3ccc(C#N)cn3)nc2-c2ccc(Cl)cc2Cl)[nH]1 + CC(C)C[C@H](NC(=O)[C@H](Cc1ccccc1)NC(=O)c1cnccn1)B(O)O [Bortezomib] (partner 0.002 µM)", "relative viability": 0.933}
{"compound": "O=c1[nH]c2ccccc2n1C1CCN(CCCC(c2ccc(F)cc2)c2ccc(F)cc2)CC1 [Pimozide] + O=C(c1cc(Cc2n[nH]c(=O)c3ccccc23)ccc1F)N1CCN(C(=O)C2CC2)CC1 [Olaparib] (partner 8 µM)", "relative viability": 0.651}
{"compound": "O=c1[nH]c2ccccc2n1C1CCN(CCCC(c2ccc(F)cc2)c2ccc(F)cc2)CC1 [Pimozide] + CS(=O)(=O)CCNCc1ccc(-c2ccc3ncnc(Nc4ccc(OCc5cccc(F)c5)c(Cl)c4)c3c2)o1 [Lapatinib] (partner 2 µM)", "relative viability": 1.08}
{"compound": "Cc1cnc(-c2cnc(NCCNc3ccc(C#N)cn3)nc2-c2ccc(Cl)cc2Cl)[nH]1 + O=C(c1cc(Cc2n[nH]c(=O)c3ccccc23)ccc1F)N1CCN(C(=O)C2CC2)CC1 [Olaparib] (partner 8 µM)", "relative viability": 0.532}

# context switch: different compound, same relative viability
Look up relative viability: O=c1[nH]c2ccccc2n1C1CCN(CCCC(c2ccc(F)cc2)c2ccc(F)cc2)CC1 [Pimozide] + CS(=O)(=O)N1CCN(Cc2cc3nc(-c4cccc5[nH]ncc45)nc(N4CCOCC4)c3s2)CC1 [Pictilisib] (partner 1 µM)
0.952

====

Recorded measurements of relative viability, one per entry
tested on: EMC-BAC-2; assay: relative viability (nuclei count vs DMSO), 5 days (fraction); higher = more cells survive; conditions: first compound 0.002 µM
// return just the number, without any unit appended

# count of solved cases: 2
{"compound": "CC(=O)O[C@@]12CO[C@@H]1C[C@H](O)[C@@]1(C)C(=O)[C@H](O)C3=C(C)[C@@H](OC(=O)[C@H](O)[C@@H](NC(=O)OC(C)(C)C)c4ccccc4)C[C@@](O)([C@@H](OC(=O)c4ccccc4)[C@H]21)C3(C)C [Docetaxel] + NC(=O)Nc1cc(-c2cccc(F)c2)sc1C(=O)N[C@H]1CCCNC1 [AZD7762] (partner 0.2 µM)", "relative viability": 0.467}
{"compound": "CC(=O)O[C@@]12CO[C@@H]1C[C@H](O)[C@@]1(C)C(=O)[C@H](O)C3=C(C)[C@@H](OC(=O)[C@H](O)[C@@H](NC(=O)OC(C)(C)C)c4ccccc4)C[C@@](O)([C@@H](OC(=O)c4ccccc4)[C@H]21)C3(C)C [Docetaxel] + C[C@]1(O)C[C@@H](c2nc(-c3ccc4ccc(-c5ccccc5)nc4c3)c3c(N)nccn32)C1 [Linsitinib] (partner 1 µM)", "relative viability": 0.463}

Look up relative viability: CC(=O)O[C@@]12CO[C@@H]1C[C@H](O)[C@@]1(C)C(=O)[C@H](O)C3=C(C)[C@@H](OC(=O)[C@H](O)[C@@H](NC(=O)OC(C)(C)C)c4ccccc4)C[C@@](O)([C@@H](OC(=O)c4ccccc4)[C@H]21)C3(C)C [Docetaxel] + CC(=O)Nc1cccc(-n2c(=O)n(C3CC3)c(=O)c3c(Nc4ccc(I)cc4F)n(C)c(=O)c(C)c32)c1 [Trametinib] (partner 0.02 µM)
0.554

Look up relative viability: CC(=O)O[C@@]12CO[C@@H]1C[C@H](O)[C@@]1(C)C(=O)[C@H](O)C3=C(C)[C@@H](OC(=O)[C@H](O)[C@@H](NC(=O)OC(C)(C)C)c4ccccc4)C[C@@](O)([C@@H](OC(=O)c4ccccc4)[C@H]21)C3(C)C [Docetaxel] + CS(=O)(=O)N1CCN(Cc2cc3nc(-c4cccc5[nH]ncc45)nc(N4CCOCC4)c3s2)CC1 [Pictilisib] (partner 1 µM)
0.324

Look up relative viability: CC(=O)O[C@@]12CO[C@@H]1C[C@H](O)[C@@]1(C)C(=O)[C@H](O)C3=C(C)[C@@H](OC(=O)[C@H](O)[C@@H](NC(=O)OC(C)(C)C)c4ccccc4)C[C@@](O)([C@@H](OC(=O)c4ccccc4)[C@H]21)C3(C)C [Docetaxel] + CS(=O)(=O)CCNCc1ccc(-c2ccc3ncnc(Nc4ccc(OCc5cccc(F)c5)c(Cl)c4)c3c2)o1 [Lapatinib] (partner 2 µM)
0.337

====

test system: NCI-H1666; assay: relative viability (nuclei count vs DMSO), 5 days (fraction); higher = more cells survive; details: first compound 0.253 µM
assayReadout: relative viability
// return just the number, without any unit appended

# count of solved cases: 3
{"compound": "Cc1cnc(-c2cnc(NCCNc3ccc(C#N)cn3)nc2-c2ccc(Cl)cc2Cl)[nH]1 + NC(=O)Nc1cc(-c2cccc(F)c2)sc1C(=O)N[C@H]1CCCNC1 [AZD7762] (partner 0.2 µM)", "measurementTarget": "NCI-H1666", "observedValue": 0.864}
{"compound": "O=c1[nH]c2ccccc2n1C1CCN(CCCC(c2ccc(F)cc2)c2ccc(F)cc2)CC1 [Pimozide] + CC1(C)CCC(c2ccc(Cl)cc2)=C(CN2CCN(c3ccc(C(=O)NS(=O)(=O)c4ccc(N[C@H](CCN5CCOCC5)CSc5ccccc5)c(S(=O)(=O)C(F)(F)F)c4)cc3)CC2)C1 [Navitoclax] (partner 0.5 µM)", "measurementTarget": "NCI-H1666", "observedValue": 1.01}
{"compound": "O=c1[nH]c2ccccc2n1C1CCN(CCCC(c2ccc(F)cc2)c2ccc(F)cc2)CC1 [Pimozide] + COc1cccc2cc(-c3nc([C@H]4CC[C@H](C(=O)O)CC4)n4ncnc(N)c34)[nH]c12 [OSI-027] (partner 0.5 µM)", "measurementTarget": "NCI-H1666", "observedValue": 0.832}

Report relative viability for O=c1[nH]c2ccccc2n1C1CCN(CCCC(c2ccc(F)cc2)c2ccc(F)cc2)CC1 [Pimozide] + Cc1nc(Nc2ncc(C(=O)Nc3c(C)cccc3Cl)s2)cc(N2CCN(CCO)CC2)n1 [Dasatinib] (partner 0.075 µM) tested on NCI-H1666.
0.814

Report relative viability for O=c1[nH]c2ccccc2n1C1CCN(CCCC(c2ccc(F)cc2)c2ccc(F)cc2)CC1 [Pimozide] + COc1cc2c(Oc3ccc(NC(=O)C4(C(=O)Nc5ccc(F)cc5)CC4)cc3F)ccnc2cc1OCCCN1CCOCC1 [Foretinib] (partner 0.25 µM) tested on NCI-H1666.
0.939

Report relative viability for Cc1cnc(-c2cnc(NCCNc3ccc(C#N)cn3)nc2-c2ccc(Cl)cc2Cl)[nH]1 + COc1cc2c(Oc3ccc(NC(=O)C4(C(=O)Nc5ccc(F)cc5)CC4)cc3F)ccnc2cc1OCCCN1CCOCC1 [Foretinib] (partner 0.25 µM) tested on NCI-H1666.
0.906

Report relative viability for Cc1cnc(-c2cnc(NCCNc3ccc(C#N)cn3)nc2-c2ccc(Cl)cc2Cl)[nH]1 + N=C(N)NC(=N)NCCc1ccccc1 [Phenformin] (partner 250 µM) tested on NCI-H1666.
0.563

Report relative viability for Cc1cnc(-c2cnc(NCCNc3ccc(C#N)cn3)nc2-c2ccc(Cl)cc2Cl)[nH]1 + Cc1nc(NC(=O)N2CCC[C@H]2C(N)=O)sc1-c1ccnc(C(C)(C)C(F)(F)F)c1 [Alpelisib] (partner 2 µM) tested on NCI-H1666.
0.919

Report relative viability for Cc1cnc(-c2cnc(NCCNc3ccc(C#N)cn3)nc2-c2ccc(Cl)cc2Cl)[nH]1 + COc1cccc2cc(-c3nc([C@H]4CC[C@H](C(=O)O)CC4)n4ncnc(N)c34)[nH]c12 [OSI-027] (partner 0.5 µM) tested on NCI-H1666.
0.77
